# experiment-notes: recombinant barcode read abundance after kanamycin selection (control-corrected) (log10(CPM+1)); higher = more efficient recombination; sequences stand for … in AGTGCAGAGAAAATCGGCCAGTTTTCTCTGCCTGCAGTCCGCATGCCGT…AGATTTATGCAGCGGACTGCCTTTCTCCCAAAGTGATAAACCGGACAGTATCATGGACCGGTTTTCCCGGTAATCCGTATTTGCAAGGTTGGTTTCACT; site = the 11-nt target;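 further: IS621 recombinase and bridge RNA in Escherichia coli cells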
Listing of entries alongside the reported recombinant barcode read abundance (log10).
reported-property: recombinant barcode read abundance (log10)

sequence-input	measured-result
AAGGGGTCTTGGGTTCTAACCTGTTGCTT (site ATGGGGTCTAA)	0.898
CTGGTGTCTTGGGTTCTAACCTGTTGCCA (site CTGATGTCTTG)	0.0384
TAGTATCCTTGGGTTCTAACCTGTTGCTA (site TAGTATGCTTA)	0.0411
GGTTCACCTTGGGTTCTAACCTGTTGCAG (site GGTTGACCTAT)	0.0489
GTGTCTCCTTGGGTTCTAACCTGTTGCCT (site TTGTCTCCTAG)	0.22
CAGAAGTCTTGGGTTCTAACCTGTTGCTT (site ACACGTGCTTC)	0.0609
ATCTACTCTTGGGTTCTAACCTGTTGCCT (site ATCTACTCTAG)	1.56
TAGTTAACTTGGGTTCTAACCTGTTGCCA (site TAGTTCACTTG)	0.0909
TGTACGACTTGGGTTCTAACCTGTTGCGG (site GAGTGTTCTAA)	0.0347
